- Tested on: HCC-2998 colon
- assay_text: NCI tumour cell line growth inhibition, 48 h

{"columns": ["compound", "TGI"],
 "data": [
  ["COC1=C2CC(C)CC(OC)C(O)C(C)/C=C(\\C)C(OC(N)=O)C(OC)/C=C\\C=C(/C)C(=O)NC(=C(/C=N/N3CCCCC3)C1=O)C2=O (stereo not given)", "18.9 µM"],
  ["Cc1ccccc1N=NC(C(=O)c1ccccc1)C(=O)c1ccccc1", "> 100 µM"],
  ["O=[N+]([O-])c1ccc(Cl)cc1C1SCc2nc3ccccc3n21 (stereo not given)", "> 100 µM"],
  ["C=CS(=O)(=O)CCN1CC1", "> 10 µM"],
  ["COc1ccc(CCNC(=O)[C@H]2CCCC[C@@H]2CCO)cc1OC", "> 100 µM"],
  ["CCn1c2ccccc2c2cc(C(O)c3cccc4ncccc34)ccc21 (stereo not given)", "15.7 µM"],
  ["O=C(NS(=O)(=O)c1ccccc1)C(Cc1ccccc1)C(Cc1ccccc1)C(=O)NS(=O)(=O)c1ccccc1 (stereo not given)", "> 100 µM"],
  ["CC#CC(O)(C(=O)OC1CC2CCC(C1)N2C)C1CCCC1 (stereo not given)", "> 100 µM"],
  ["O=S(=O)(NCCNc1nccc(-c2c(-c3ccc(F)cc3)nc3sccn23)n1)c1ccccc1", "> 100 µM"],
  ["O=C1OC(c2ccccc2)=N/C1=C\\c1cccc(F)c1", "> 100 µM"]
]}

====

- Tested on: XF 498 CNS
- assay_text: NCI tumour cell line growth inhibition, 48 h

{"columns": ["compound", "assay_target", "TGI"],
 "data": [
  ["Cc1ccc(NC(=O)C(=O)Cc2cc[n+]([O-])cc2)cc1", "XF 498 CNS", "> 100 µM"],
  ["Cc1ccc(S(=O)(=O)c2c(N)n(CCN(C)C)c3nc4ccccc4nc23)cc1", "XF 498 CNS", "> 100 µM"],
  ["CCOC(OC1=C(C#N)CCCC1)C(C)[Se]c1ccccc1 (stereo not given)", "XF 498 CNS", "57 µM"],
  ["NC(=O)c1cccc([C@@H]2O[C@H](CO)[C@@H](O)[C@H]2O)c1", "XF 498 CNS", "7 µM"],
  ["CC1=C(C(=O)Nc2ccc([N+](=O)[O-])cc2)C(c2ccccc2F)C(C(=O)Nc2ccc([N+](=O)[O-])cc2)=C(C)N1", "XF 498 CNS", "6.94 µM"],
  ["CC(C)(C)S(=O)OC12CC3CC(CC(C3)C1)C2 (stereo not given)", "XF 498 CNS", "> 100 µM"],
  ["O=C1NC(=O)C2C1N(Cc1ccccc1)C(=O)N2Cc1ccccc1 (stereo not given)", "XF 498 CNS", "> 100 µM"],
  ["O=C(/C=C1/Nc2ccc([N+](=O)[O-])cc2NC1O)c1cccc([N+](=O)[O-])c1 (stereo not given)", "XF 498 CNS", "> 100 µM"],
  ["C=C(Cl)Cc1c(O)c2c(c(O)c1CC(=C)Cl)C(=O)c1ccccc1C2=O", "XF 498 CNS", "> 100 µM"],
  ["COC1OC2COC(c3ccccc3)OC2C(O)C1Br (stereo not given)", "XF 498 CNS", "> 100 µM"]
]}
